IC50 tested on EGFR (human): recorded values
endpoint-name: IC50 (µM)

[I] COc1cc(N)c(C(=N)Nc2ccc(F)c(Cl)c2)cc1OC
[II] COc1cc(N)c(C(=O)Nc2cccc(Br)c2)cc1OC
[in] IC50 comparison. Which is larger, I or II ? Please respond with the label that marks your chosen entry.
[out] II
(II: 340 µM, I: 200 µM)

[A] COc1cc(N)c(C(=N)Nc2cccc(Br)c2)cc1OC
[B] COc1cc(N)c(C(=O)Nc2cccc(Br)c2)c(OC)c1OC
[C] COc1cc2c(cc1OC)C(Nc1cccc(Br)c1)=NC(C)(C)N2
[D] COc1cc(N)c(C(=N)Nc2cccc(Cl)c2)cc1OC
[in] Sort by IC50, descending. // format: requested-order list of labels
[out] B, D, A, C
